assay: recombinant barcode read abundance after kanamycin selection (control-corrected) (log10(CPM+1)); higher = more efficient recombination; sequences stand for … in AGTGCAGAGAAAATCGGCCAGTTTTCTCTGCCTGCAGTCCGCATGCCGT…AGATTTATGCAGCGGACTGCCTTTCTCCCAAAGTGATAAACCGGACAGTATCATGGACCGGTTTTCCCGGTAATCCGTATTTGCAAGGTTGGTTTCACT; site = the 11-nt target
Reported recombinant barcode read abundance (log10) values for the following sequences.
Would you mind answering with just the numeric figure?

GGGGTTCCTTGGGTTCTAACCTGTTGCGT (site GGGGTTCCTAA)	0.321
CTGCCCGCTTGGGTTCTAACCTGTTGCCT (site GTGCTCGCTAG)	0.366
GGGCACTCTTGGGTTCTAACCTGTTGCAT (site GGGCACTCTAA)	0.75
TCGCACACTTGGGTTCTAACCTGTTGCCT (site TCGCACACTAG)	0.622
CTCCTGCCTTGGGTTCTAACCTGTTGCCT (site TTCCTGACTAG)	0.0902
TATAGAGCTTGGGTTCTAACCTGTTGCGG (site TACAGAGCTCC)	0.297
GCGGAGTCTTGGGTTCTAACCTGTTGCGT (site GCTAAGTCTAC)	0.0484
GAGGAAGCTTGGGTTCTAACCTGTTGCCT (site GGGGAAGCTAG)	0.316

Briefly, recombinant barcode read abundance (log10) measured for TTGGGCGCTTGGGTTCTAACCTGTTGCCT (site TTGGTCGCTAG) : 0.0335

Briefly, recombinant barcode read abundance (log10) measured for TCGGAGTCTTGGGTTCTAACCTGTTGCTT (site TCGGAGTCTAG) : 1.17

---

experiment: recombinant UMI read abundance after kanamycin selection (control-corrected) (log10(CPM+1)); higher = more efficient recombination; extreme values may be limits of the assay; sequences stand for … in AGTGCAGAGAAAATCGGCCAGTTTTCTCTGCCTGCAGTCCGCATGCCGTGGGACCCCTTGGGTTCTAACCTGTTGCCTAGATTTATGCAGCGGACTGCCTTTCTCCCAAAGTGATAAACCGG…AGGTTGGTTTCACT; site = the 11-nt donor
VALUE_TYPE: recombinant UMI read abundance (log10)
Would you mind answering with just the numeric figure?

Some solved entries appear below for comparison.
ATCTATACATGGACCGGTTTTCCCGGTAATCCGTATTTGCC (site ATCTATACTGT)	0.46
CAATGCCCATGGACCGGTTTTCCCGGTAATCCGTATTTGAA (site CAATGCTCTTT)	1.62

Briefly, recombinant UMI read abundance (log10) measured for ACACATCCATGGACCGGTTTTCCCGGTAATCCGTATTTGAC (site ACACCTCCTGT) : 0.91

Briefly, recombinant UMI read abundance (log10) measured for CTAGTACCATGGACCGGTTTTCCCGGTAATCCGTATTTGAC (site CTAGTACCTGT) : 0

Briefly, recombinant UMI read abundance (log10) measured for ATTGACACATGGACCGGTTTTCCCGGTAATCCGTATTTGAC (site ATTGACACTGT) : 2.61

Briefly, recombinant UMI read abundance (log10) measured for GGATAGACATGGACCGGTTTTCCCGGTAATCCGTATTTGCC (site GGATAGACTGC) : 0

Briefly, recombinant UMI read abundance (log10) measured for AAAGTATCATGGACCGGTTTTCCCGGTAATCCGTATTTGGA (site AAAGTATCTTC) : 2.45

---

test: recombinant UMI read abundance after kanamycin selection (control-corrected) (log10(CPM+1)); higher = more efficient recombination; extreme values may be limits of the assay; sequences stand for … in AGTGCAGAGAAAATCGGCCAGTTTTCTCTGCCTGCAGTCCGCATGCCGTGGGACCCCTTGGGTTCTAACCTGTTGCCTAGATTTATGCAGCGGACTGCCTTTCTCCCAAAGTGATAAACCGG…AGGTTGGTTTCACT; site = the 11-nt donor
Reported recombinant UMI read abundance (log10) values for the following sequences.
Would you mind answering with just the numeric figure?

Some solved entries appear below for comparison.
CGGCCGGCATGGACCGGTTTTCCCGGTAATCCGTATTTGGC (site GGGCCGGCTGC)	0
CGGACTACATGGACCGGTTTTCCCGGTAATCCGTATTTGAC (site GGGACTACTGT)	0
CCTAACACATGGACCGGTTTTCCCGGTAATCCGTATTTGGC (site CCTAAGACTGC)	0
CACTCTACATGGACCGGTTTTCCCGGTAATCCGTATTTGTA (site CACTCTACTTA)	0.722

Please find the next sequence below.
Briefly, recombinant UMI read abundance (log10) measured for AGGTTCCCATGGACCGGTTTTCCCGGTAATCCGTATTTGGG (site AGGTTCCCTCA) : 0.0189

---

experiment: recombinant barcode read abundance after kanamycin selection (control-corrected) (log10(CPM+1)); higher = more efficient recombination; sequences stand for … in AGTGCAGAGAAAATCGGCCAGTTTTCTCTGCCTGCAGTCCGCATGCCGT…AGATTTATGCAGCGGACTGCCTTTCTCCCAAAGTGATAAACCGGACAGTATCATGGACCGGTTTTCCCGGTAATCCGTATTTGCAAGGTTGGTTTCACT; site = the 11-nt target
Label not met if recombinant barcode read abundance (log10) falls below 0.1; label met in every other case.

Record excerpt, results attached:
GCCGAAACTTGGGTTCTAACCTGTTGCCT (site GCCGACACTAG)	not met
ACAGCCTCTTGGGTTCTAACCTGTTGCCT (site ACAGCCTCTAG)	met
ACTGAGTCTTGGGTTCTAACCTGTTGCTT (site ACTGGGTCTAA)	not met
CTAGTCTCTTGGGTTCTAACCTGTTGCGT (site CTAGGATCTAC)	not met

Ask: Evaluate CTGGACACTTGGGTTCTAACCTGTTGCCT (site CTTGACACTAG) : recombinant barcode read abundance (log10) at minimum 0.1?
Reply: met

Ask: Evaluate AGTCTAGCTTGGGTTCTAACCTGTTGCTC (site AGTCTAGCTGA) : recombinant barcode read abundance (log10) at minimum 0.1?
Reply: met

Ask: Evaluate CCAATTGCTTGGGTTCTAACCTGTTGCCT (site CCAATTGCTAG) : recombinant barcode read abundance (log10) at minimum 0.1?
Reply: met

Ask: Evaluate GAGAAGTCTTGGGTTCTAACCTGTTGCCT (site GAGTAGTCTAG) : recombinant barcode read abundance (log10) at minimum 0.1?
Reply: met

Ask: Evaluate TAGGCATCTTGGGTTCTAACCTGTTGCTC (site TAGCCATCTGA) : recombinant barcode read abundance (log10) at minimum 0.1?
Reply: met

Ask: Evaluate GTAACTACTTGGGTTCTAACCTGTTGCTC (site GTAACTACTGA) : recombinant barcode read abundance (log10) at minimum 0.1?
Reply: met

Ask: Evaluate CAATATCCTTGGGTTCTAACCTGTTGCCT (site CAGTATCCTAG) : recombinant barcode read abundance (log10) at minimum 0.1?
Reply: met

Ask: Evaluate ATATGTCCTTGGGTTCTAACCTGTTGCAG (site ATAGGACCTCT) : recombinant barcode read abundance (log10) at minimum 0.1?
Reply: not met

Ask: Evaluate CAACGAGCTTGGGTTCTAACCTGTTGCCG (site CAGCGAGCTCG) : recombinant barcode read abundance (log10) at minimum 0.1?
Reply: not met

Ask: Evaluate CTAGACTCTTGGGTTCTAACCTGTTGCAC (site CTAGACTCTAT) : recombinant barcode read abundance (log10) at minimum 0.1?
Reply: met

Ask: Evaluate CTCTATTCTTGGGTTCTAACCTGTTGCAT (site CTCGATTCTAT) : recombinant barcode read abundance (log10) at minimum 0.1?
Reply: met

Ask: Evaluate TCGTCACCTTGGGTTCTAACCTGTTGCCT (site GCGTCACCTAG) : recombinant barcode read abundance (log10) at minimum 0.1?
Reply: met

---

Reported recombinant UMI read abundance (log10) values for the following sequences.
experiment: recombinant UMI read abundance after kanamycin selection (control-corrected) (log10(CPM+1)); higher = more efficient recombination; extreme values may be limits of the assay; sequences stand for … in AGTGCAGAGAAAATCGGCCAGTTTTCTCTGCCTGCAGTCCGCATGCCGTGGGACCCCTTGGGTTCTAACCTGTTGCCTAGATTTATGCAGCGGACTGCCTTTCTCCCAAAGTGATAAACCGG…AGGTTGGTTTCACT; site = the 11-nt donor
Would you mind answering with just the numeric figure?

Some solved entries appear below for comparison.
ACCGTAACATGGACCGGTTTTCCCGGTAATCCGTATTTGCA (site ACAGTATCTTG)	1.49
GGCAGTCCATGGACCGGTTTTCCCGGTAATCCGTATTTGAA (site GGCAGTCCTTT)	0.191
CTCCCTCCATGGACCGGTTTTCCCGGTAATCCGTATTTGAG (site CTCCCTGCTCT)	0.009
GAAGGGCCATGGACCGGTTTTCCCGGTAATCCGTATTTGCA (site GAATGGCCTTG)	0
TGAAGTCCATGGACCGGTTTTCCCGGTAATCCGTATTTGTA (site TGAAGTCCTTA)	0.591
GTTAGAACATGGACCGGTTTTCCCGGTAATCCGTATTTGAC (site GTTAGAACTGA)	0.0146
GGGTCACCATGGACCGGTTTTCCCGGTAATCCGTATTTGCC (site GGGTCACCTGG)	0
CGGAAATCATGGACCGGTTTTCCCGGTAATCCGTATTTGCT (site CGGACATCTAG)	0.293

Please find the next sequence below.
Briefly, recombinant UMI read abundance (log10) measured for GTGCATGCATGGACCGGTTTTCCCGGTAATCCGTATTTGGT (site GTGCAAGCTAC) : 0.00542
